Taken from patent EP4585599A1.

- target-of-assay: helicase domain of the Pol θ protein (Homo sapiens)
- Construct: The helicase domain of the Pol θ protein was purified from insect protein expression system; made in house; host or cells: insect protein expression system
- Sequence (O75417 102-554 limits assumed): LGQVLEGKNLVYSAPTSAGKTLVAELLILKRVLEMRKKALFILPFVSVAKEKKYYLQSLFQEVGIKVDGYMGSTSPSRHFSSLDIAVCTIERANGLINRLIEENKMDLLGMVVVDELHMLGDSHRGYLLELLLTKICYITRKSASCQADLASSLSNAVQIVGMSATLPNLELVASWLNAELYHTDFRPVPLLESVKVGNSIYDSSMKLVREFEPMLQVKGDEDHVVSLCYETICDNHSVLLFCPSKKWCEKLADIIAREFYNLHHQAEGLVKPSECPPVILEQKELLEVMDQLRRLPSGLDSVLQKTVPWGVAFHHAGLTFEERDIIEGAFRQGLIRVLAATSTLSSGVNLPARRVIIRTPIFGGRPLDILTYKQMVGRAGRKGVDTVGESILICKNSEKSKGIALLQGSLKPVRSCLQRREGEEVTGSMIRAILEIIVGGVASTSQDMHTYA
- test: Biochemical Activity Assay (ADP Glo Assay) of Pol θ inhibitor, ATPase activity
- test-settings: ADP-Glo, ssDNA substrate, 60 min at room temperature; read-out: Biochemical assay IC50
experimental-endpoint: IC50

COc1cnc(Cl)cc1-c1cc(C)ncc1C(=O)Nc1nc2ccc(-c3ccncc3Cl)nc2s1 [Example 82]	< 50 nM
COc1cnc(Cl)cc1-c1cc(C)ncc1C(=O)Nc1nc2ccc(C3CCN(C)CC3)nc2s1 [Example 36]	200 to 500 nM
COc1cnc(Cl)cc1-c1cc(C)ncc1C(=O)Nc1nc2c(F)cc(N3CCC(O)CC3)cc2s1 [Example 103]	< 50 nM
COc1cnc(Cl)c(F)c1-c1cc(C)ncc1C(=O)Nc1nc2ncc(C3=CCC(O)CC3)cc2s1 (centres unmarked) [Example 8]	< 50 nM
COc1cnc(Cl)cc1-c1cc(C)ncc1C(=O)Nc1nc2ncc(N3CCC(OC)CC3)cc2s1 [Example 66]	< 50 nM
COc1cnc(Cl)cc1-c1cc(C)ncc1C(=O)Nc1nc2ncc(C3=CCC(NC(C)=O)CC3)cc2s1 (centres unmarked) [Example 23]	< 50 nM
COc1cnc(Cl)cc1-c1cnccc1C(=O)Nc1nc2ccc([C@H]3CC[C@@H](O)CC3)nc2s1 [Example 33]	< 50 nM
COc1cnc(Cl)cc1-c1cc(C)ncc1C(=O)Nc1nc2ncc(-c3ccc(N4CCNCC4)cc3)cc2s1 [Example 81]	< 50 nM
COc1cnc(Cl)c(F)c1-c1cc(C)ncc1C(=O)Nc1nc2ccc(N3CCC(O)CC3)nc2s1 [Example 53]	< 50 nM
COc1cnc(Cl)cc1-c1cc(C)ncc1C(=O)Nc1nc2ccc(C3=CCC(O)CC3)nc2[nH]1 (centres unmarked) [Example 56]	200 to 500 nM
COc1cnc(Cl)cc1-c1cc(C)ncc1C(=O)Nc1nc2cc(F)c(C3=CCC(O)CC3)cc2s1 (centres unmarked) [Example 84]	< 50 nM
COc1cnc(Cl)cc1-c1cc(C)ncc1C(=O)Nc1nc2c(s1)CNCC2 [Example 41]	> 500 nM
COc1cnc(Cl)c(F)c1-c1cc(C)ncc1C(=O)Nc1nc2ncc(-c3ccn(C)n3)cc2s1 [Example 17]	< 50 nM
COc1cnc(Cl)cc1-c1cc(C)ncc1C(=O)Nc1nc2ncc(C3=COCCO3)cc2s1 [Example 86]	< 50 nM
